- Assay Comment: amyloid nucleation score (Sup35N fusion, yeast selection) (log enrichment); library NNK3; higher = more nucleation; inactive = no reads after selection;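 also: zero at mode of non-aggregating sequences after 7 days selection at 30°C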
Property Measured: amyloid nucleation score

- Substance: "LVTPSSTALFWSNFLWSELP"
  Result: "inactive"
- Substance: "ISSAYCGHIGLAAINRLILT"
  Result: "inactive"
- Substance: "TPRLSMDHTFVRWDCV"
  Result: "inactive"
- Substance: "NSVPRGMAFFLNAFFSLIYY"
  Result: "inactive"
- Substance: "CYQPRYLSWLKVRDCEDGVY"
  Result: "inactive"
- Substance: "KCCEQRAIIPFVGRTRSHAT"
  Result: "inactive"
- Substance: "CQVSCFNLVSIKSWDKIAGS"
  Result: 2.52
- Substance: "VSELPSACDNYIYCCNG"
  Result: 0.326
- Substance: "LVLPVSFRVCFREVIIHMKY"
  Result: "inactive"
- Substance: "VYNIDTRNISFMSASNRTLS"
  Result: "inactive"
- Substance: "TMIFMLVI"
  Result: "inactive"
- Substance: "FCRMVPLIEWSVTRFRDCVG"
  Result: "inactive"
- Substance: "SFKKPRPNYLPVFLVYLCNS"
  Result: "inactive"
- Substance: "RSNVVAQMYQKMLLSRYCTI"
  Result: 0.354
- Substance: "SSPRSMASYQRSKIRWVSEF"
  Result: "inactive"
- Substance: "GYLLRFMCCNCIPSTEIMIE"
  Result: 2.73
- Substance: "TYLGDSFSILHLIQGDWFIE"
  Result: "inactive"
- Substance: "SSGLICF"
  Result: "inactive"
- Substance: "FDRNSPTVLFRLRWEYF"
  Result: "inactive"
- Substance: "VVATILLVHPPVKHWSCDLM"
  Result: -0.859
- Substance: "AKTSYQRN"
  Result: "inactive"
- Substance: "LVYAKNMLFDNKDWCV"
  Result: "inactive"
- Substance: "FGSNTGYVIEGRLAVGFEKL"
  Result: "inactive"
- Substance: "INNLFTRVSSIRFCVRS"
  Result: "inactive"
- Substance: "KITLDYRLGHVDRQTTISVK"
  Result: "inactive"
